Values from PubChem BioAssay

Exercise: for every item that follows, state its recorded composite z-score.
Molecular target: Alpha-bungarotoxin (Bungarus multicinctus) (UniProt P60615)
Sequence (P60615 whole entry, looked up): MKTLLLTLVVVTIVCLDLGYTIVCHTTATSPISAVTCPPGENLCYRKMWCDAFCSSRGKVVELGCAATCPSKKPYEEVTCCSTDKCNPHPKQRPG
Experiment: compounds binding labelled alpha-BTX control protein – biochemical, small-molecule microarray, Alexa647 label, 635/667 nm fluorescence, artefact control for SMM control protein annotation, profiling panel (AID 1117)
Conditions: alpha-BTX-A647 binding fluorescence, higher = more signal
The answer should be a number; do not append a unit.

input: Item under review: CC1CC/C=C\[C@H]2OC34C=CCN(c5ccc(Cl)cc5)C(=O)[C@H]3N(C(C)CO)C(=O)[C@]4(C)C2C(=O)O1 (stereo partly specified) . Reported composite z-score?
output: -0.664

input: Item under review: NC(=O)[C@H]1[C@@H]2C(=O)O[C@@H](c3ccccc3)[C@@H](c3ccccc3)N2[C@@H](c2ccc(OCCO)cc2)[C@]12C(=O)Nc1ccc(C#CCCO)cc12 . Reported composite z-score?
output: 1.59

input: Item under review: O=C(O)[C@@H]1C[C@@H]2C(=O)N3CCC[C@H]3C(=O)N2[C@@H]1c1ccc(O)cc1 . Reported composite z-score?
output: 0.964

input: Item under review: C=CCOC(=O)[C@@H]1[C@H]2C(=O)O[C@H](c3ccccc3)[C@H](c3ccccc3)N2[C@H](c2ccc(OCCOC(=O)[C@@H]3C[C@@H]4C(=O)N[C@@H](CCCC[N+](C)(C)C)C(=O)N4[C@@H]3c3ccc(O)cc3)cc2)[C@@]12C(=O)Nc1ccc(I)cc12 . Reported composite z-score?
output: 0.923

input: Item under review: COCCOC(=O)N1C(=O)[C@@]2(c3cc(C#CCNC(N)=O)ccc31)[C@H](C(N)=O)[C@H]1C(=O)O[C@H](c3ccccc3)[C@H](c3ccccc3)N1[C@@H]2c1ccccc1OCCO . Reported composite z-score?
output: 1.06

input: Item under review: CCOC(=O)C[C@H]1[C@H](OC(=O)c2ccc(-c3ccccc3)cc2)[C@@H](NC(=O)CC(C)C)c2cc(OCCCO)ccc2N1C(=O)c1ccc2ccccc2n1 . Reported composite z-score?
output: 0.0623

---

Assay: probe aDKK1 binding to arrayed compounds – biochemical, biotinylated probe, 635/667 nm fluorescence, primary screen (AID 1099);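 further: score merges 667nm spot fluorescence with signal to noise across triplicate slides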
Details: small-molecule microarray, higher = more signal
Recorded composite z-score determines the label; the label ranges are LOW: < -0.08; MID: ≥ -0.08 and < 0.4; HIGH: ≥ 0.4

input: Bin this entry: COc1cc(NN2C(C(O)c3cc(OC)c(OC)c(OC)c3)C=CC3C(=O)N(C)C(=O)C32)cc(OC)c1OC (centres undefined)
output: MID

input: Bin this entry: O=C1NC(=O)C2C1C=CC(C(O)c1ccco1)N2Nc1ccc(Cl)cc1Cl (centres undefined)
output: HIGH

input: Bin this entry: Cc1ccc(S[C@]2(C(=O)O)CC(=O)N(C3CCCCC3)[C@@H]2c2ccc(CO)cc2I)cc1
output: HIGH

input: Bin this entry: Oc1ccc2cc[n+](Cc3cc4c(cc3Br)OCO4)cc2c1
output: MID

input: Bin this entry: C=CCN1C(=O)[C@]2(CCS(=O)(=O)c3ccccc3)N=C(c3ccc(OCCCO)cc3)O[C@@H]2c2ccccc21
output: LOW

input: Bin this entry: C=CC[C@@]1(C(=O)NCCCOC)N=C(c2ccc(OCCCO)cc2)O[C@@H]1c1ccccc1
output: HIGH

input: Bin this entry: CCCCN1CC=CC23O[C@@H]4/C=C\CCC(C)OC(=O)C4[C@H]2C(=O)N(CCCO)[C@@H]3C1=O (some centres undefined)
output: LOW

input: Bin this entry: CCOC(=O)C[C@H]1[C@H](OC(=O)c2ccccc2-c2ccccc2)[C@@H](NC(=O)c2ccc3ccccc3n2)c2cc(OCCCO)ccc2N1C(=O)Cc1ccc(OC)cc1
output: MID

input: Bin this entry: C=CCNC(=O)[C@@H]1[C@H]2C(=O)O[C@H](c3ccccc3)[C@H](c3ccccc3)N2[C@H](c2ccc(O)cc2)[C@@]12C(=O)N(C(=O)OCCOC)c1ccc(C#CC3=CCCCC3)cc12
output: LOW

input: Bin this entry: COCCOC(=O)N1C(=O)[C@@]2(c3cc(C#CCCO)ccc31)[C@H](c1ccc(OCCO)cc1)N1[C@H](c3ccccc3)[C@H](c3ccccc3)OC(=O)[C@H]1[C@@H]2C(=O)Nc1nc2ccccc2s1
output: HIGH

input: Bin this entry: CC(CO)N1C(=O)[C@]2(C)C3C(=O)OCCC/C=C\[C@H]3OC23C=CCN(c2ccc(Cl)cc2)C(=O)[C@@H]13 (some centres undefined)
output: LOW

input: Bin this entry: O=C1O[C@@H](c2ccccc2)[C@@H](c2ccccc2)N2[C@@H](c3ccc(OCCO)cc3)[C@]3(C(=O)Nc4ccc(C#CC5=CCCCC5)cc43)[C@@H](C(=O)NC[C@H](O)c3ccccc3)[C@H]12
output: LOW

input: Bin this entry: COc1ccc(CCNC(=O)[C@@]2(c3ccc([N+](=O)[O-])cc3)CC(=O)N(C3CCCCC3)[C@@H]2c2ccc(CO)cc2)cc1
output: HIGH

input: Bin this entry: COCCOC(=O)N1C(=O)[C@@]2(c3cc(C#CCC(C(=O)OC)C(=O)OC)ccc31)[C@H](c1ccc(OCCO)cc1)N1[C@H](c3ccccc3)[C@H](c3ccccc3)OC(=O)[C@H]1[C@@H]2C(=O)N1CCc2cc(OC)c(OC)cc2C1
output: MID

---

Biological target: Homeobox protein Hox-A13 (Mus musculus) (UniProt Q62424)
Sequence (Q62424 whole entry, looked up): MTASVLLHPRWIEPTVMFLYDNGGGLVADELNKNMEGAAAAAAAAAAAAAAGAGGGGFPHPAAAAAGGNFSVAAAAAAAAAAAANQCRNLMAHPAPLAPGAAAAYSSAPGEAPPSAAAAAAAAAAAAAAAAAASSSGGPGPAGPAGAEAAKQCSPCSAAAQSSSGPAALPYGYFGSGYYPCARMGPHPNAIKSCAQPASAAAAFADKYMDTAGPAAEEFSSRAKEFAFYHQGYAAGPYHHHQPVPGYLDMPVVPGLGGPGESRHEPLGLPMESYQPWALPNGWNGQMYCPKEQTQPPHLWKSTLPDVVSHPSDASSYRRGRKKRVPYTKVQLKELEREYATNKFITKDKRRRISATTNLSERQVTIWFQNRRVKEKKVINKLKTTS
Experiment: disruptors of Hoxa13 oligonucleotide interaction – biochemical, fluorescence polarization, labeled oligonucleotide, primary screen (AID 1185)
Details: Hoxa13:DNA binding, 15 min, higher = more signal, called active from +8 up or from −8 down
result type: z-score
The answer should be a number; do not append a unit.

input: Item under review: CC(C)N1CC=CC23O[C@@H]4C=CCCOC(=O)C4[C@H]2C(=O)N(CCCO)[C@@H]3C1=O (some centres undefined) . Reported z-score?
output: -4.97

input: Item under review: Cc1ccc(S[C@]2(C(=O)NCC(F)(F)F)CC(=O)N(Cc3cc(C(F)(F)F)cc(C(F)(F)F)c3)[C@@H]2c2ccc(CO)cc2I)cc1 . Reported z-score?
output: -2.68

input: Item under review: COc1ccc([Si](C)(C)[C@@H]2[C@@H](CCO)O[C@]3(C(=O)N(Cc4ccccc4)c4ccc(N5C(=O)c6cccc7cccc5c67)cc43)[C@H]2C)cc1 . Reported z-score?
output: -0.268

input: Item under review: COC(=O)C1=CC(CCCO)=CC(c2cccs2)N(Cc2cccc(OC(F)(F)F)c2)C=C1C(=O)OC (centres undefined) . Reported z-score?
output: -7.24

---

Biological target: Luciferin 4-monooxygenase (Photinus pyralis)
Assay: inhibition of purified Photinus pyralis luciferase – biochemical, luminescence, purified enzyme, 2006 set, primary screen (AID 1141);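 further: cell-free assay with purified firefly luciferase at 100 ng per well in PBS; test concentration not given here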
Details: purified firefly luciferase, SteadyGlo luminescence, 30 min; higher = more signal, called active from +8 up or from −8 down
z-score vs -0.5: at or above is rule met, below is rule not met.

input: Reported z-score at or above -0.5? COc1ccc([Si](C)(C)[C@H]2[C@H](CC(=O)N(CCO)Cc3ccccc3)O[C@@]3(C(=O)N(C)c4c(Br)cc(C)cc43)[C@@H]2C)cc1
output: rule met

input: Reported z-score at or above -0.5? CCC#CCN(Cc1ccccc1Br)[C@H](/C=C/C1CC1)[C@@H](O)Cc1ccccc1
output: rule met

input: Reported z-score at or above -0.5? CCC1=C2CN(Cc3ccccc3)[C@@H](C(=O)Cc3ccccc3)C2C=CCC1 (stereo partly specified)
output: rule met

input: Reported z-score at or above -0.5? CN(C)c1ccc(C(O)C2C=CC3C(=O)NC(=O)C3N2Nc2ccccn2)cc1 (stereo unspecified)
output: rule not met

input: Reported z-score at or above -0.5? O=C(NCc1ccc(F)cc1)[C@H]1C[C@H]2C(=O)NCC(=O)N2[C@H]1c1ccc(O)cc1
output: rule met

input: Reported z-score at or above -0.5? Cc1ccc(F)cc1S(=O)(=O)N[C@@H]1CCN(Cc2ccc(Br)cc2)C1
output: rule met

input: Reported z-score at or above -0.5? C=CCOC(=O)[C@@]1(Cc2ccccc2)C[C@H]2CO[C@H](c3ccc(OC)cc3)N2C1=O
output: rule met

input: Reported z-score at or above -0.5? COC(=O)[C@@H]1N=C(c2ccc(OCCCO)cc2)O[C@@H]1C
output: rule not met

input: Reported z-score at or above -0.5? CC(=O)NCCCC[C@@H]1NC(=O)[C@@H]2C[C@H](C(=O)NCCCCCN)[C@H](c3ccc(O)cc3)N2C1=O
output: rule met

input: Reported z-score at or above -0.5? NC(=O)NCC#Cc1ccc2c(c1)[C@]1(C(=O)N2)[C@H](C(=O)N2CCN(c3ncccn3)CC2)[C@H]2C(=O)O[C@H](c3ccccc3)[C@H](c3ccccc3)N2[C@@H]1c1ccc(O)cc1
output: rule not met

input: Reported z-score at or above -0.5? C=CC[C@@]1(C(=O)NCCCOC)N=C(c2ccc(OCCCO)cc2)O[C@@H]1c1ccccc1N=[N+]=[N-]
output: rule not met

input: Reported z-score at or above -0.5? O=C1[C@H]2C=C(I)[C@H](C[C@@H]2OCCOCCO)[C@@]12CO2
output: rule met

input: Reported z-score at or above -0.5? CS(=O)(=O)CCOC(=O)C1=CC(c2ccc(CO)cc2)=CC(C2CC2)N(Cc2sc3ccccc3c2Cl)C=C1C(=O)OCCS(C)(=O)=O (stereo unspecified)
output: rule not met

input: Reported z-score at or above -0.5? Cc1ccc(S[C@]2(C(=O)NCC(F)(F)F)CC(=O)N(Cc3cc(C(F)(F)F)cc(C(F)(F)F)c3)[C@@H]2c2ccc(CO)cc2)cc1
output: rule met

input: Reported z-score at or above -0.5? CCCC1(C(=O)OC)C=C2C(=C(C)C(=O)C2C)CN1 (stereo unspecified)
output: rule met

input: Reported z-score at or above -0.5? COc1ccc([Si](C)(C)[C@@H]2[C@@H](CCO)O[C@]3(C(=O)N(Cc4ccccc4)c4ccc(N5C(=O)c6cccc7cccc5c67)cc43)[C@H]2C)cc1
output: rule not met
